System: 883617-216-R-J1-PDC tumor spheroids, viability;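 also: spheroids exposed to agents for 7 days before the viability read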
PROCEDURE TEXT: Anticancer human tumor 883617-216-R-J1-PDC patient-derived bladder carcinoma cell line growth inhibition [PI3K]
TEST SETTINGS: second compound 1 µM; first compound 0.03 µM; active compounds read low; spheroids with HUVEC and MSC
QUANTITY MEASURED: viability, T/C (%)
Give your result in % as a bare value.

Guide cases for viability, T/C, answers given:
[
  {
    "COMPOUND": "Cn1cnc2c(F)c(Nc3ccc(Br)cc3Cl)c(C(=O)NOCCO)cc21 + CC(Nc1ccc2c(c1)OCCn1cc(N3C(=O)OCC3C(F)F)nc1-2)C(N)=O",
    "REPORTED VALUE": 9.92
  },
  {
    "COMPOUND": "Cn1cnc2c(F)c(Nc3ccc(Br)cc3Cl)c(C(=O)NOCCO)cc21 + COc1c(OCCCN2CCOCC2)ccc2c3n(c(=NC(=O)c4cnc(N)nc4)nc12)CCN3",
    "REPORTED VALUE": 0.53
  },
  {
    "COMPOUND": "Cn1cnc2c(F)c(Nc3ccc(Br)cc3Cl)c(C(=O)NOCCO)cc21 + CC(Nc1ncnc2nc[nH]c12)c1cc2cccc(Cl)c2c(=O)n1-c1ccccc1",
    "REPORTED VALUE": 44.9
  }
]

Which value of viability, T/C has been reported for Cn1cnc2c(F)c(Nc3ccc(Br)cc3Cl)c(C(=O)NOCCO)cc21 + Cc1nc(NC(=O)N2CCCC2C(N)=O)sc1-c1ccnc(C(C)(C)C(F)(F)F)c1 in the records?
19
